- System: kinetic aqueous solubility, PBS pH 7.4, LC-UV/MS
- assay_procedure: Inhibitors of HPGD: Aqueous Solubility Profiling; call rule not given here
Classes used: True (active), False (inactive)

INSERT INTO results (smiles_data, system, assigned_category) VALUES
  ('Cc1cccc(-n2cnc3cc(C(=O)N4CCCCC4)ccc32)c1', 'kinetic aqueous solubility, PBS pH 7.4, LC-UV/MS', 'False'),
  ('Cc1cc(-c2nnc3n2CCCCC3)c(C)n1-c1ccccc1', 'kinetic aqueous solubility, PBS pH 7.4, LC-UV/MS', 'True');
